Experiment: Tissue distribution after single i.v. injection in male CD-1 mice
Conditions: male, CD-1, mouse, in vivo, iv, 2 mg/kg
attributeMeasured: Kp

INSERT INTO results (compound, result) VALUES
  ('[2H]C([2H])([2H])CC(=O)C(CC(C)N(C([2H])([2H])[2H])C([2H])([2H])[2H])(c1ccccc1)c1ccccc1 (racemic) [d9-methadone]', 0.35);
